src = patent US4436733A

Would you kindly list MIC (minimal inhibitory concentration) for each of these compounds?
System: Streptococcus Group D X66
assay-text: standard agar-dilution assay, MIC
Format: cell-based
Lab note: record just the number, no unit beside it.

Reported MIC (minimal inhibitory concentration) for CCC1OC(=O)CC(O)C(C)C(OC2OC(C)C(OC3CC(C)(O)C(OC(=O)Cc4ccccc4)C(C)O3)C(N(C)C)C2O)C(CC=O)CC(C)C(=O)C=CC(C)=CC1C (centres unmarked) was 8

Reported MIC (minimal inhibitory concentration) for CCC(=O)OC1CC(=O)OC(CC)C(CO)C=C(C)C=CC(=O)C(C)CC(CC=O)C(OC2OC(C)C(OC3CC(C)(O)C(OC(=O)CC)C(C)O3)C(N(C)C)C2O)C1C (centres unmarked) was 1

Reported MIC (minimal inhibitory concentration) for CCC(=O)OCC1C=C(C)C=CC(=O)C(C)CC(CC=O)C(OC2OC(C)C(OC3CC(C)(O)C(OC(=O)CC)C(C)O3)C(N(C)C)C2OC(C)=O)C(C)C(OC(=O)CC)CC(=O)OC1CC (centres unmarked) was 1

Reported MIC (minimal inhibitory concentration) for CCC(=O)OC1CC(=O)OC(CC)C(COC(=O)C(Cl)(Cl)Cl)C=C(C)C=CC(=O)C(C)CC(CC=O)C(OC2OC(C)C(OC3CC(C)(O)C(OC(=O)CC)C(C)O3)C(N(C)C)C2OC(C)=O)C1C (centres unmarked) was 2

Reported MIC (minimal inhibitory concentration) for CCC(=O)OC1C(C)OC(OC2C(C)OC(OC3C(CC=O)CC(C)C(=O)C=CC(C)=CC(C)C(CC)OC(=O)CC(O)C3C)C(OC(C)=O)C2N(C)C)CC1(C)O (centres unmarked) was 0.5
